Biological target: BCL-2 (Homo sapiens)
Sequence (P10415 whole entry): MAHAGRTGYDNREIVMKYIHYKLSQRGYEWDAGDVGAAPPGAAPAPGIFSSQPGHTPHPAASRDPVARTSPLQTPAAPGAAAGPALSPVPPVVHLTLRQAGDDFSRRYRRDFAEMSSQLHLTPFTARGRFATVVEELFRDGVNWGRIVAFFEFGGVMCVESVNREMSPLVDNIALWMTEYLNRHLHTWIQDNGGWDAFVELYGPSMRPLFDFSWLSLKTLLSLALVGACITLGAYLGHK
Lab note - cut at 0.07 nM for Ki: rule met if strictly below, rule not met if not.

- compound: "CO[C@@H](c1ccccc1-c1ccc(Cl)cc1)C1CCN(c2ccc(C(=O)NS(=O)(=O)c3ccc(N[C@@H](CSc4ccccc4)C[C@H]4CCCN4CCO)c(S(=O)(=O)C(F)(F)F)c3)cc2)CC1"
  category: "rule not met"

Enquiry: Below 0.07 nM on Ki? Entry `CN(CCO)CC[C@H](CSc1ccccc1)Nc1ccc(S(=O)(=O)NC(=O)c2ccc(N3CCC([C@@H](O)c4ccccc4-c4ccc(C(F)(F)F)cc4)CC3)cc2)cc1S(=O)(=O)C(F)(F)F`
Return: rule met

Enquiry: Below 0.07 nM on Ki? Entry CC(Sc1ccccc1)[C@@H](CCN(C)CCO)Nc1ccc(S(=O)(=O)NC(=O)c2ccc(N3CCC([C@@H](O)c4ccccc4-c4ccc(C(F)(F)F)cc4)CC3)cc2)cc1S(=O)(=O)C(F)(F)F (stereo partly shown)
Return: rule not met

Enquiry: Below 0.07 nM on Ki? Entry `O=C(NS(=O)(=O)c1ccc(N[C@@H](CSc2ccccc2)C[C@@H]2CCCN2CCCO)c(S(=O)(=O)C(F)(F)F)c1)c1ccc(N2CCC([C@@H](O)c3ccccc3-c3ccc(Cl)cc3)CC2)cc1`
Return: rule met

Enquiry: Below 0.07 nM on Ki? Entry `O=C(NS(=O)(=O)c1ccc(N[C@@H](CSc2ccccc2)C[C@@H]2CCCN2CCO)c(S(=O)(=O)C(F)(F)F)c1)c1ccc(N2CCC([C@@H](O)c3ccccc3-c3ccc(C(F)(F)F)cc3)CC2)cc1`
Return: rule met

Enquiry: Below 0.07 nM on Ki? Entry `O=C(NS(=O)(=O)c1ccc(N[C@@H](CSc2ccccc2)C[C@@H]2CCCN2CCO)c(S(=O)(=O)C(F)(F)F)c1)c1ccc(N2CCC([C@@H](O)c3ccccc3-c3ccc(Cl)cc3)CC2)cc1`
Return: rule met
